Recorded IC50 at 5 d for the following compounds
Assay: Manual human EST cytotoxicity assay, CellTiter-Glo, 5 d
Settings: human, HDFf (human dermal fibroblasts of fetal origin)
The reply should be a number in µg/mL, with the unit left off.

Examples with answers:
INSERT INTO assay_data (compound, measurement_units, recorded_measurement) VALUES
  ('O=c1[nH]cc(F)c(=O)[nH]1 [5-Fluorouracil, 5-fluorouracil]', 'µg/mL', 0.186),
  ('Cn1c(=O)c2c(ncn2C)n(C)c1=O [Caffeine, caffeine]', 'µg/mL', 412);

Now for a further compound.
Can you share its IC50 at 5 d? I mean this compound: CC1(C)S[C@@H]2[C@H](NC(=O)Cc3ccccc3)C(=O)N2[C@H]1C(=O)O [Penicillin G, penicillin G]
795
